Target: Human thrombin (Homo sapiens, UniProt P00734)
Construct: converts prothrombin (II) to thrombin (IIa); purchased Calbiochem, La Jolla, Calif
Assay: Thrombin assay (chromogenic substrate)
Format: biochemical
Settings: reported only as less than or greater than 30 uM; read-out: Thrombin (II) IC50
pIC50: −log10 of the molar value.
observable: pIC50

Illustrative cases are given below, each with its answer.
compound: COc1cccc(CC(=O)Nc2cc(N)cc(-c3cnc(NC(C)C)c(=O)n3CC(=O)NCc3ccc(C(=N)N)cc3)c2)c1
result: < 4.52

compound: CC(C)Nc1ncc(-c2cc(N)cc(OC3CCCC3)c2)n(CC(=O)NCc2ccc(C(=N)N)cc2)c1=O.O=C(O)C(F)(F)F.O=C(O)C(F)(F)F
result: < 4.52

compound: CC(C)Nc1ncc(-c2cc(N)cc(C(=O)N[C@@H](C(=O)O)c3ccccc3)c2)n(CC(=O)NCc2ccc(C(=N)N)cc2)c1=O
result: < 4.52

compound: COC(=O)CCNC(=O)c1cc(N)cc(-c2cnc(NC(C)C)c(=O)n2CC(=O)NCc2ccc(C(=N)N)cc2)c1
result: < 4.52

compound: CC(C)Nc1ncc(-c2cc(N)cc(/C=C/Cc3ccccc3)c2)n(CC(=O)NCc2ccc(C(=N)N)cc2)c1=O
result: < 4.52

Inquiry: Item `COC(=O)c1cc(N)cc(-c2cnc(NC(C)C)c(=O)n2CC(=O)NCc2c(F)c(F)c(C(=N)N)c(F)c2F)c1` : provide pIC50
Reply text: < 4.52

// data source = patent US20040106626A1
